All figures here come from patent US12447167B2.

assay: Disposition after single oral dose, rat; format: in vivo; details: blood; male rat, 10 mg/kg single oral, 14C-labeled, fasting; read-out: MRT0-∞

# Compound, MRT inf
records = [
    ("CCCCCCCCCCCCCCCCCCCCCCCC(=O)NC(COC1OC(CO)C(O)C(O)C1O)[C@H](O)C(O)CCCCC (stereo in doubt)", "32.4 h"),
]

----------
assay: Disposition after single oral dose, humans (normal subjects); assay type: in vivo, human; details: human, plasma; normal subjects, 10 mg/body oral
Measurement type: Cmax

# Compound, Measurement type, Reported value
rows = [
    ("CCCCCCCCCCCCCCCCCCCCCCCC(=O)NC(COC1OC(CO)C(O)C(O)C1O)[C@H](O)C(O)CCCCC (stereo in doubt) [compound 31]", "Cmax", "6.01 ng/mL"),
]

----------
test: Disposition after single oral dose, humans (normal subjects); type: in vivo, human; settings: human, blood; normal subjects, 30 mg/body oral

# Molecule, AUC(0-t), ng·h/mL
measured = [
    ("CCCCCCCCCCCCCCCCCCCCCCCC(=O)NC(COC1OC(CO)C(O)C(O)C1O)[C@H](O)C(O)CCCCC (stereo in doubt)", 657),
]

----------
assay: Disposition after single oral dose, humans (normal subjects); type: in vivo, human; conditions: human, blood; normal subjects, 3 mg/body oral

# Compound, Unit text, AUC(0-t)
data = [
    ("CCCCCCCCCCCCCCCCCCCCCCCC(=O)NC(COC1OC(CO)C(O)C(O)C1O)[C@H](O)C(O)CCCCC (stereo in doubt) [compound 31]", "µg·h/mL", 0.121),
]

----------
experiment: Disposition after single oral dose, humans (normal subjects); assay type: in vivo, human; settings: human, blood; normal subjects, 10 mg/body oral

# Compound, AUC(0-inf) / ng·h/mL
rows = [
    ("CCCCCCCCCCCCCCCCCCCCCCCC(=O)NC(COC1OC(CO)C(O)C(O)C1O)[C@H](O)C(O)CCCCC (stereo in doubt) [compound 31]", 381),
]

----------
assay: Disposition after single oral dose, humans (normal subjects); format: in vivo, human; conditions: human, blood; normal subjects, 1 mg/body oral

# Compound, AUC(0-inf)
rows = [
    ("CCCCCCCCCCCCCCCCCCCCCCCC(=O)NC(COC1OC(CO)C(O)C(O)C1O)[C@H](O)C(O)CCCCC (stereo in doubt)", "87.1 ng·h/mL"),
]

----------
experiment: Disposition after single oral dose, humans (normal subjects); assay type: in vivo, human; settings: human, blood; normal subjects, 3 mg/body oral

# Molecule, Unit text, half-life
measured = [
    ("CCCCCCCCCCCCCCCCCCCCCCCC(=O)NC(COC1OC(CO)C(O)C(O)C1O)[C@H](O)C(O)CCCCC (stereo in doubt)", "h", 47.8),
]

----------
assay: Disposition after single oral dose, mouse; assay type: in vivo; settings: blood; male mouse, 5 mg/kg single oral, 14C-labeled, fasting

# Compound, AUC(0-inf)
rows = [
    ("CCCCCCCCCCCCCCCCCCCCCCCC(=O)NC(COC1OC(CO)C(O)C(O)C1O)[C@H](O)C(O)CCCCC (stereo in doubt)", "2920 ng·h/mL"),
]

----------
test: Disposition after single oral dose, humans (normal subjects); format: in vivo, human; settings: human, plasma; normal subjects, 3 mg/body oral

# Molecule, Unit text, Cmax
measured = [
    ("CCCCCCCCCCCCCCCCCCCCCCCC(=O)NC(COC1OC(CO)C(O)C(O)C1O)[C@H](O)C(O)CCCCC (stereo in doubt)", "ng/mL", 2.11),
]

----------
test: Disposition after single oral dose, rat; format: in vivo; conditions: blood; male rat, 10 mg/kg single oral, 14C-labeled, fasting

# Compound, Unit text, AUC(0-inf)
records = [
    ("CCCCCCCCCCCCCCCCCCCCCCCC(=O)NC(COC1OC(CO)C(O)C(O)C1O)[C@H](O)C(O)CCCCC (stereo in doubt) [compound 31]", "ng·h/mL", 3330),
]

----------
Test: Disposition after single oral dose, humans (normal subjects)
Type: in vivo, human
Settings: human, blood; normal subjects, 0.3 mg/body oral
Experimental: After a single dose of compound 31 labeled with ^14C was orally administered at a predetermined dose to each of a male mouse, a male rat, and a male cynomolgus monkey under fasting conditions, the concentration in blood was measured after a lapse of a given time, and parameters such as maximum plasma concentration Cmax, time Tmax to reach the maximum plasma concentration, half-life t1/2, area under curve AUC0-∞, mean retention time MRT0-∞, and bioavailability BA were calculated. […]
Measurement type: AUC(0-inf) (ng·h/mL)

# Compound, Unit text, Reported value
records = [
    ("CCCCCCCCCCCCCCCCCCCCCCCC(=O)NC(COC1OC(CO)C(O)C(O)C1O)[C@H](O)C(O)CCCCC (stereo in doubt) [compound 31]", "ng·h/mL", 23.4),
]

----------
assay: Disposition after single oral dose, humans (normal subjects); format: in vivo, human; conditions: human, blood; normal subjects, 10 mg/body oral

# Compound, half-life, h
records = [
    ("CCCCCCCCCCCCCCCCCCCCCCCC(=O)NC(COC1OC(CO)C(O)C(O)C1O)[C@H](O)C(O)CCCCC (stereo in doubt)", 45.3),
]

----------
test: Disposition after single oral dose, mouse; format: in vivo; conditions: plasma; male mouse, 5 mg/kg single oral, 14C-labeled, fasting

# Compound, Cmax
data = [
    ("CCCCCCCCCCCCCCCCCCCCCCCC(=O)NC(COC1OC(CO)C(O)C(O)C1O)[C@H](O)C(O)CCCCC (stereo in doubt)", "209 ng/mL"),
]

----------
experiment: Disposition after single oral dose, humans (normal subjects); type: in vivo, human; settings: human, plasma; normal subjects, 30 mg/body oral

# Compound, Unit text, Cmax
measured = [
    ("CCCCCCCCCCCCCCCCCCCCCCCC(=O)NC(COC1OC(CO)C(O)C(O)C1O)[C@H](O)C(O)CCCCC (stereo in doubt) [compound 31]", "ng/mL", 9.81),
]

----------
assay: Disposition after single oral dose, cynomolgus monkey; format: in vivo; conditions: blood; male cynomolgus monkey, 10 mg/kg single oral, 14C-labeled, fasting

# Molecule, AUC(0-inf)
data = [
    ("CCCCCCCCCCCCCCCCCCCCCCCC(=O)NC(COC1OC(CO)C(O)C(O)C1O)[C@H](O)C(O)CCCCC (stereo in doubt)", "2380 ng·h/mL"),
]

----------
assay: Disposition after single oral dose, rat; format: in vivo; settings: plasma; male rat, 10 mg/kg single oral, 14C-labeled, fasting

# Compound, Cmax [ng/mL]
rows = [
    ("CCCCCCCCCCCCCCCCCCCCCCCC(=O)NC(COC1OC(CO)C(O)C(O)C1O)[C@H](O)C(O)CCCCC (stereo in doubt)", 128),
]

----------
test: Disposition after single oral dose, cynomolgus monkey; format: in vivo; conditions: blood; male cynomolgus monkey, 10 mg/kg single oral, 14C-labeled, fasting; read-out: MRT0-∞

# Molecule, MRT inf, h
measured = [
    ("CCCCCCCCCCCCCCCCCCCCCCCC(=O)NC(COC1OC(CO)C(O)C(O)C1O)[C@H](O)C(O)CCCCC (stereo in doubt)", 60.9),
]

----------
experiment: Disposition after single oral dose, cynomolgus monkey; assay type: in vivo; details: blood; male cynomolgus monkey, 10 mg/kg single oral, 14C-labeled, fasting
Measurement type: half-life (h)

# Compound, Unit text, Reported value
records = [
    ("CCCCCCCCCCCCCCCCCCCCCCCC(=O)NC(COC1OC(CO)C(O)C(O)C1O)[C@H](O)C(O)CCCCC (stereo in doubt)", "h", 39.2),
]

----------
experiment: Disposition after single oral dose, humans (normal subjects); format: in vivo, human; conditions: human, blood; normal subjects, 1 mg/body oral
Measurement type: half-life (h)

# Molecule, Reported value
records = [
    ("CCCCCCCCCCCCCCCCCCCCCCCC(=O)NC(COC1OC(CO)C(O)C(O)C1O)[C@H](O)C(O)CCCCC (stereo in doubt) [compound 31]", 44.3),
]

----------
test: Disposition after single oral dose, humans (normal subjects); assay type: in vivo, human; settings: human, plasma; normal subjects, 1 mg/body oral

# Molecule, Unit text, Tmax
data = [
    ("CCCCCCCCCCCCCCCCCCCCCCCC(=O)NC(COC1OC(CO)C(O)C(O)C1O)[C@H](O)C(O)CCCCC (stereo in doubt)", "h", 20.7),
]

----------
assay: Disposition after single oral dose, humans (normal subjects); format: in vivo, human; conditions: human, plasma; normal subjects, 0.3 mg/body oral
Measurement type: Tmax (h)

# Compound, Reported value
measured = [
    ("CCCCCCCCCCCCCCCCCCCCCCCC(=O)NC(COC1OC(CO)C(O)C(O)C1O)[C@H](O)C(O)CCCCC (stereo in doubt)", 13),
]

----------
assay: Disposition after single oral dose, cynomolgus monkey; format: in vivo; settings: plasma; male cynomolgus monkey, 10 mg/kg single oral, 14C-labeled, fasting

# Compound, Tmax / h
data = [
    ("CCCCCCCCCCCCCCCCCCCCCCCC(=O)NC(COC1OC(CO)C(O)C(O)C1O)[C@H](O)C(O)CCCCC (stereo in doubt)", 28),
]
